assay protocol: qHTS for Inhibitors of human tyrosyl-DNA phosphodiesterase 1 (TDP1): qHTS in cells in absence of CPT; note: nearly all actives have a fitted effect of over 55% in size
measurement parameters: DT40 Tdp1-/- hTDP1 cells, no CPT, ATP luminescence, 48 h
About 64,000 (15%) of roughly 420,000 compounds were called active. Not shown: some 27% with an inconclusive outcome. Calls come from the whole dose curve; as a rule, active = well fitted inhibition curve with a large enough effect; inconclusive = small, poorly fitted or top-dose-only effect; inactive = flat fitted curve, though single readings scatter. The list is a sample of the results.
Thanks in advance; please answer with one of these: T = active, F = inactive

Q: Test call, this compound: "Cc1ccnc(N2CCC(C(=O)NC3CCCCCC3)CC2)n1"
A: F

Q: Short answer needed: outcome of this test for CCOC(=O)c1cc2c(nc1NC(=S)Nc1ccccc1)CC(C)(CC)OC2 (stereo not drawn) ?
A: F

Q: Per the records of this test, what outcome belongs to "Cc1nn(Cc2ccc(F)cc2)c(C)c1NC(=O)c1cc(CC(C)C)on1" ?
A: T

Q: How did this test come out for "CC(C)Cc1cc(C(=O)Nc2cc(Br)ccc2O)no1" ?
A: T

Q: Answer briefly: the call reported for "COc1ccc(OC)c(CCNC(=O)CCCn2c(=O)c3cccn3c3cccnc32)c1" in this assay.
A: T

Q: How did this test come out for COc1cccc(CNC(=O)C(NS(=O)(=O)c2ccc3nc(C)sc3c2)C(C)C)c1 (stereo not drawn) ?
A: F

Q: Which outcome was entered for the compound "COc1nc(NC2CCCCC2)nc(N2CCCCCC2)n1" in this test?
A: T

Q: What is the recorded call for this compound in the test? "Cc1cc(Br)cn2c(Cc3ccccc3C(F)(F)F)c(-c3ccc(Cl)cc3)nc12"
A: F

Q: GET /call?item= "CCOCCCNS(=O)(=O)Cc1ccccc1" returns the recorded outcome of this test.
A: F

Q: For this compound, state the assay outcome: "Cc1[nH]n(-c2ccccc2)c(=O)c1/C=N/NC(=O)c1ccoc1C"
A: T

Q: Hi, sorry to bother you, what did the test record for CSc1ncc(Cl)c(C(=O)Nc2ccc(S(=O)(=O)N3CCCC(C)C3)cc2)n1 (stereo not drawn) ?
A: T

Q: Query: recorded result category for "COCCNC(=O)CSc1nc(N)c(NC(=O)c2ccco2)c(=O)[nH]1" in this test
A: F

Q: Each compound tested received a call. Report the one for "CC(=O)c1cc2c(cc1N)OCO2" .
A: F

Q: What call does the record list for "COCCCNC(=O)CCc1nc2cccnc2n1Cc1ccc(OC)cc1" ?
A: F

Q: What call does the record list for CCC(c1nc2ccccc2[nH]1)n1c(=O)c(-c2cccs2)nc2ccccc21 (stereo not drawn) ?
A: T

Q: What outcome does the record of this test show for "Cn1c(=O)c(Sc2ccc(Cl)cc2)c(O)c2ccccc21" ?
A: F

Q: Could you check what this test reported for "Cc1cc(Br)cn2c(Cc3cccc(F)c3)c(-c3cccc(Br)c3)nc12" ?
A: T

Q: Call for entry "Cc1ccc(N=Nc2c(C)[nH]n(-c3ccccc3)c2=O)cc1" :
A: F

Q: Given "Cc1ccc(C)c(C(=O)N2CCC(n3nccc3NC(=O)C3CC3)CC2)c1" , state the outcome it received in this test.
A: F

Q: I would be grateful if you could indicate the recorded call for "Cc1cc(C(=O)Nc2c(C)nn(Cc3ccccc3)c2C)on1" .
A: F

Q: For this compound, state the assay outcome: "COc1ccc(C)cc1NC(=O)CCCN1C(=O)NC(C)(C)C1=O"
A: F

Q: Recorded call for "Cc1ccccc1Cn1nc(C)c(NC(=O)C(F)(F)F)c1C" ?
A: F

Q: State the result this test recorded for OC(c1nc2ccccc2[nH]1)C(O)C(O)C(O)c1nc2ccccc2[nH]1 (stereo not drawn) .
A: F

Each recorded value in this set is attributed to PubChem BioAssay AID686978.
